- System: SK-MEL-5 melanoma
- assay-summary: NCI-60 one-dose screen, 48 h (100 = growth as untreated, 0 = no growth, -100 = all killed)
- measurement-parameters: 10 µM unless noted
Compounds without any hit were thinned out: in the full panel of roughly 83,000, 20% have a hit.
Criterion: growth strictly under 90%. Met: Y. Not met: N.

INSERT INTO results (compound, class_name) VALUES
  ('CCN1C(=O)N(CC)C2C1NN=C1SC(c3ccccc3)=CC(=O)N12 (stereo not given)', 'Y'),
  ('COc1ccc(C2CC(c3ccc(Nc4nc(NCCO)nc(Nc5ccc(Cl)cc5)n4)cc3)=Nc3c(N)nc(N)nc3N2)cc1 (stereo not given)', 'Y'),
  ('COc1ccc(-c2nn(-c3ccccc3)cc2/C=C/C(=O)c2ccc(NC(=O)CCCCCCC(=O)NO)cc2)cc1', 'N'),
  ('Oc1ccc(CSc2nnc(-c3ccc(Cl)cc3)o2)c2cccnc12', 'Y'),
  ('Cc1cc(=O)n2nc(-c3c[nH]c4ccccc34)sc2n1', 'N'),
  ('Cc1ccc(-c2cc(-c3ccc(N(C)C)cc3)n3c(n2)nc2ccccc23)cc1', 'Y'),
  ('CN(C)CCn1c2ccc(N)cc2c2nc3ccccc3nc21', 'Y'),
  ('O=c1[nH]c(CNc2ccc(NCc3c(-c4ccccc4)no[n+]3[O-])cc2)nc2c1cnn2-c1ccccc1', 'Y');
